For each entry below, report its pIC50 value.
# MEASURED_ON: CDK5/p25 (Homo sapiens, UniProt Q00535)
# Sequence (Q00535 whole entry): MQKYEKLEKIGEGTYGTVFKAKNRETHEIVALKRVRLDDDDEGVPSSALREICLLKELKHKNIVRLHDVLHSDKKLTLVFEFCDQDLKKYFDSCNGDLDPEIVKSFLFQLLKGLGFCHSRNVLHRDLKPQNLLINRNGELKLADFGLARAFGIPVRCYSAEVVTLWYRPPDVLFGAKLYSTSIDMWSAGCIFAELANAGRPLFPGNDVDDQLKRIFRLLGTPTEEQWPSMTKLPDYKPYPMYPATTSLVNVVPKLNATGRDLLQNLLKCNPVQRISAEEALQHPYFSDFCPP
# Sequence (Q15078 99-307 partner limits assumed): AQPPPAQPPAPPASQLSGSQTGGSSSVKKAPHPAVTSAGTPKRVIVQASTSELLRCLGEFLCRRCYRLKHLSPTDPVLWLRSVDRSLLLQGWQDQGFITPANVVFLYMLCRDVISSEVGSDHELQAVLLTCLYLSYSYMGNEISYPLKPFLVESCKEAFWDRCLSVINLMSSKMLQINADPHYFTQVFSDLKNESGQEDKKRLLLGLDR
# TEST_DESCRIPTION: CDK5/p25 kinase assay (histone H1)
pIC50: −log10 of the molar value.

[
  {
    "COMPOUND": "O=c1oc2cc(O)c(O)cc2c2c(-c3ccc(O)c(O)c3)c3c4cc(O)c(O)cc4ccn3c12 [Compound 4, lamellarin H]",
    "pIC50": "< 5.00"
  },
  {
    "COMPOUND": "COc1ccc2oc(=O)c3c(c(-c4ccc(O)c(OC)c4)c4c5cc(OC)c(O)cc5ccn43)c2c1 [Compound 10, lamellarin 4]",
    "pIC50": 6.22
  },
  {
    "COMPOUND": "O=c1oc2ccccc2c2c(-c3ccc(O)c(O)c3)c3c4cc(O)c(O)cc4ccn3c12 [Compound 15, lamellarin 9]",
    "pIC50": "< 5.00"
  },
  {
    "COMPOUND": "COc1cc(-c2c3c4cc(OC)c(O)cc4oc(=O)c3n3ccc4cc(O)c(OC)cc4c23)ccc1O [Compound 1, lamellarin D]",
    "pIC50": 6.26
  },
  {
    "COMPOUND": "COc1cc2c(cc1O)oc(=O)c1c2c(-c2ccc(OC)c(OC)c2)c2c3cc(OC)c(OC)cc3ccn21 [Compound 11, lamellarin 5]",
    "pIC50": "< 5.00"
  },
  {
    "COMPOUND": "O=c1oc2cc(O)c(O)cc2c2c(-c3ccc(O)c(O)c3)c3n(c12)CCc1cc(O)c(O)cc1-3 [Compound 5, di-H-lamellarin H]",
    "pIC50": "< 5.00"
  }
]

Can you share its pIC50? I mean this compound: COc1cc(-c2c3c4cc(OC)c(O)cc4oc(=O)c3n3ccc4cc(OC)c(OC)cc4c23)ccc1O [Compound 2, lamellarin α]
< 5.00

---

# Tested on: human neuroblastoma SH-SY5Y cells
# TEST_DESCRIPTION: SH-SY5Y cell survival, MTS reduction assay
# Assay type: cell-based
# EXPERIMENTAL_CONTEXT: read-out: IC50 SH-SY5Y cell survival
# Description: We next tested the effects of each lamellarin, at an initial 10 μM concentration, on the survival of the neuroblastoma SH-SY5Y cell line after 48 h exposure (Table 2). Cell survival was estimated by the MTS reduction assay. SH-SY5Y human neuroblastoma cells were grown in DMEM supplemented with 2mM L-glutamine (Invitrogen, Cergy Pontoise, France), plus antibiotics (penicillin-streptomycin) and a 10% volume of fetal calf serum (FCS) (Invitrogen). […]
OBSERVATION_TYPE: IC50 (nM)
Answers are plain numbers, in nM.

Can you share its IC50? I mean this compound: COc1ccc(-c2c3c4cc(OC)c(O)cc4oc(=O)c3n3ccc4cc(O)c(OC)cc4c23)cc1O
25

---

# MEASURED_ON: DYRK1A (Rattus norvegicus, UniProt Q63470)
pIC50: −log10 of the molar value.
For each entry below, report its pIC50 value.

Would you mind listing pIC50 for each of the following compounds?
1. COc1cc2c(cc1O)oc(=O)c1c2c(-c2ccc(OC)c(OC)c2)c2c3cc(OC)c(OC)cc3ccn21
2. COc1cc(-c2c3c4ccc(O)cc4oc(=O)c3n3ccc4cc(O)c(OC)cc4c23)ccc1O
3. O=c1oc2cc(O)c(O)cc2c2c(-c3ccc(O)c(O)c3)c3n(c12)CCc1cc(O)c(O)cc1-3

["< 5.00", 7.22, "< 5.00"]

---

For each entry below, report its IC50 value.
# MEASURED_ON: GSK-3α/ß
# TEST_DESCRIPTION: GSK-3α/β kinase assay (GS-1 substrate)
# EXPERIMENTAL_CONTEXT: 15 μM ATP; cell '− (x)' = no inhibitory activity detected, x = highest concentration tested
Numbers only, in nM.

Would you mind listing IC50 for each of the following compounds?
1. O=c1oc2cc(O)c(O)cc2c2c(-c3ccc(O)c(O)c3)c3n(c12)CCc1cc(O)c(O)cc1-3
2. COc1cc(-c2c3n(c4c(=O)oc5cc(O)c(OC)cc5c24)CCc2cc(O)c(OC)cc2-3)ccc1O
3. O=c1oc2cc(O)c(O)cc2c2c(-c3ccc(O)c(O)c3)c3c4cc(O)c(O)cc4ccn3c12
4. COc1ccc(-c2c3c4cc(OC)c(O)cc4oc(=O)c3n3ccc4cc(O)c(OC)cc4c23)cc1O
5. COc1ccc2oc(=O)c3c(c(-c4ccc(O)c(OC)c4)c4c5cc(OC)c(O)cc5ccn43)c2c1
6. COc1cc(-c2c3c4ccccc4oc(=O)c3n3ccc4cc(O)c(OC)cc4c23)ccc1O

1. 670
2. 900
3. 9500
4. 5
5. 50
6. 2200

Would you mind listing IC50 for each of the following compounds?
1. COc1cc(-c2c3c4cc(OC)c(O)cc4oc(=O)c3n3ccc4cc(O)c(OC)cc4c23)ccc1O
2. COc1cc2c(cc1O)oc(=O)c1c2c(-c2ccc(O)cc2)c2c3cc(OC)c(O)cc3ccn21

1: 300; 2: 130

---

# MEASURED_ON: PIM 1 (Homo sapiens)
# Sequence (P11309 whole entry, species assumed): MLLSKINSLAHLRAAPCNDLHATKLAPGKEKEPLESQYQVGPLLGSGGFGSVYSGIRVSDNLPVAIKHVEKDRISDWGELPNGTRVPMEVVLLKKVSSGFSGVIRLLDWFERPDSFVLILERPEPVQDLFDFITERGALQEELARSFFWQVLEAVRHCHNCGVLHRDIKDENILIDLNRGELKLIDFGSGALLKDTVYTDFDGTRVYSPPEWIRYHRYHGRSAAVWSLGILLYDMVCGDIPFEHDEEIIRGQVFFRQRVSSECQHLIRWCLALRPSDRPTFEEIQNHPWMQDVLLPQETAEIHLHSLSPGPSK
# TEST_DESCRIPTION: PIM1 kinase assay (histone H1)
# Format: biochemical
# EXPERIMENTAL_CONTEXT: 15 μM ATP; cell '− (x)' = no inhibitory activity detected, x = highest concentration tested; read-out: IC50 PIM 1
Classify: 1 when IC50 is strictly less than 600 nM; 0 when IC50 is not.

Known results for compounds:
[
  {
    "COMPOUND": "COc1cc2c(cc1O)oc(=O)c1c2c(-c2ccc(OC)c(OC)c2)c2c3cc(OC)c(OC)cc3ccn21 [Compound 11, lamellarin 5]",
    "CAT": 0
  },
  {
    "COMPOUND": "O=c1oc2ccccc2c2c(-c3ccc(O)c(O)c3)c3c4cc(O)c(O)cc4ccn3c12 [Compound 15, lamellarin 9]",
    "CAT": 0
  },
  {
    "COMPOUND": "COc1cc(-c2c3c4cc(OC)c(O)cc4oc(=O)c3n3ccc4cc(O)c(OC)cc4c23)ccc1O [Compound 1, lamellarin D]",
    "CAT": 1
  },
  {
    "COMPOUND": "COc1ccc(-c2c3c4cc5c(cc4oc(=O)c3n3ccc4cc(OC)c(OC)cc4c23)OCO5)cc1OC [Compound 17, lamellarin 12]",
    "CAT": 0
  },
  {
    "COMPOUND": "COc1cc2c(cc1O)oc(=O)c1c2c(-c2ccc(O)cc2)c2c3cc(OC)c(O)cc3ccn21 [Compound 12, lamellarin 6]",
    "CAT": 1
  }
]

For COc1cc(-c2c3c4ccccc4oc(=O)c3n3ccc4cc(O)c(OC)cc4c23)ccc1O [Compound 14, lamellarin 8] , is the recorded IC50 below the cut-off of 600 nM?
0

For COc1cc(-c2c3n(c4c(=O)oc5cc(O)c(OC)cc5c24)CCc2cc(O)c(OC)cc2-3)ccc1O [Compound 3, di-H-lamellarin D] , is the recorded IC50 below the cut-off of 600 nM?
1

---

# MEASURED_ON: CDK5/p25 (Homo sapiens)
# TEST_DESCRIPTION: CDK5/p25 kinase assay (histone H1)
For each entry below, report its pIC50 value.
Give bare numbers, as −log10 of the molar value.

[
  {
    "STRUCTURE_NOTATION": "COc1cccc(-c2c3c4cc(OC)c(O)cc4oc(=O)c3n3ccc4cc(O)c(OC)cc4c23)c1",
    "pIC50": 5.68
  }
]

Here is the next item to consider.
Can you share its pIC50? I mean this molecule: COc1ccc(-c2c3n(c4c(=O)oc5cc(O)c(OC)cc5c24)CCc2cc(O)c(OC)cc2-3)cc1O
7.00

---

# MEASURED_ON: CK1
# TEST_DESCRIPTION: CK1 kinase assay (CKS peptide)
# Type: biochemical, porcine
# EXPERIMENTAL_CONTEXT: 15 μM ATP; cell '− (x)' = no inhibitory activity detected, x = highest concentration tested
OBSERVATION_TYPE: IC50

[
  {
    "MOLECULE": "COc1ccc(-c2c3c4cc(OC)c(O)cc4oc(=O)c3n3ccc4cc(O)c(OC)cc4c23)cc1O [Compound 6, lamellarin N]",
    "IC50": "> 10 µM"
  },
  {
    "MOLECULE": "COc1cc(-c2c3c4cc(OC)c(O)cc4oc(=O)c3n3ccc4cc(OC)c(OC)cc4c23)ccc1O [Compound 2, lamellarin α]",
    "IC50": "7.9 µM"
  },
  {
    "MOLECULE": "O=c1oc2ccccc2c2c(-c3ccc(O)c(O)c3)c3c4cc(O)c(O)cc4ccn3c12 [Compound 15, lamellarin 9]",
    "IC50": "> 10 µM"
  },
  {
    "MOLECULE": "COc1ccc(-c2c3c4cc5c(cc4oc(=O)c3n3ccc4cc(OC)c(OC)cc4c23)OCO5)cc1OC [Compound 17, lamellarin 12]",
    "IC50": "> 10 µM"
  },
  {
    "MOLECULE": "COc1cc(-c2c3n(c4c(=O)oc5cc(O)c(OC)cc5c24)CCc2c-3cc(OC)c(OC)c2O)ccc1O [Compound 22, lamellarin K]",
    "IC50": "6 µM"
  },
  {
    "MOLECULE": "COc1cccc(-c2c3c4cc(OC)c(O)cc4oc(=O)c3n3ccc4cc(O)c(OC)cc4c23)c1 [Compound 13, lamellarin 7]",
    "IC50": "> 10 µM"
  },
  {
    "MOLECULE": "COc1cc2c(cc1O)oc(=O)c1c2c(-c2ccc(OC)c(OC)c2)c2c3cc(OC)c(OC)cc3ccn21 [Compound 11, lamellarin 5]",
    "IC50": "> 10 µM"
  },
  {
    "MOLECULE": "O=c1oc2cc(O)c(O)cc2c2c(-c3ccc(O)c(O)c3)c3n(c12)CCc1cc(O)c(O)cc1-3 [Compound 5, di-H-lamellarin H]",
    "IC50": "5.2 µM"
  },
  {
    "MOLECULE": "COc1cc(-c2c3c4ccccc4oc(=O)c3n3ccc4cc(O)c(OC)cc4c23)ccc1O [Compound 14, lamellarin 8]",
    "IC50": "> 10 µM"
  },
  {
    "MOLECULE": "COc1ccc(-c2c3c4ccccc4oc(=O)c3n3ccc4cc(OC)c(OC)cc4c23)cc1OC [Compound 16, lamellarin 11]",
    "IC50": "> 10 µM"
  }
]

Would you mind listing IC50 for each of the following molecules?
1. COc1cc(-c2c3c4ccc(O)cc4oc(=O)c3n3ccc4cc(O)c(OC)cc4c23)ccc1O [Compound 9, lamellarin 3]
2. COc1cc(-c2c3n(c4c(=O)oc5cc(O)c(OC)cc5c24)CCc2cc(O)c(OC)cc2-3)ccc1O [Compound 3, di-H-lamellarin D]
3. COc1cc2c(cc1O)oc(=O)c1c2c(-c2ccc(O)cc2)c2c3cc(OC)c(O)cc3ccn21 [Compound 12, lamellarin 6]

1. 0.41 µM
2. 5.9 µM
3. 0.8 µM
